- Test system: 1a-H77 replicon cells
- Run description: HCV 1a replicon inhibitory activity (Renilla luciferase)
- Type: cell-based, hepatitis C virus
- Test context: Hepatitis C virus, 48 h, read-out: IC50 value (95% Confidence Intervals) pM Replicon 1A assay
Structures can show the parent of a compound that is named as a salt.
Endpoint: IC50 (pM)
One number for each entry, in pM.

Lookup: Any idea what its IC50 is? The compound is COC(=O)N[C@@H](CO)C(=O)N1CCC[C@H]1c1ncc(-c2ccc3nc(-c4ccc(-c5c[nH]c([C@@H]6CCCN6C(=O)[C@@H](NC(=O)OC)C(C)C)n5)cc4)cnc3c2)[nH]1 [Example 64, trifluoroacetic acid salt]
Found: 44.9

Lookup: # IC50 lookup, item CCCC[C@@H](NC(=O)OC)C(=O)N1CCC[C@H]1c1ncc(-c2ccc3nc(-c4ccc(-c5c[nH]c([C@@H]6CCCN6C(=O)[C@@H](NC(=O)OC)C(C)C)n5)cc4)cnc3c2)[nH]1 [Example 78, trifluoroacetic acid salt]
Found: 443

Lookup: Form field: reported IC50 of COC(=O)N[C@@H](CCS(C)(=O)=O)C(=O)N1CCC[C@H]1c1ncc(-c2ccc3nc(-c4ccc(-c5c[nH]c([C@@H]6CCCN6C(=O)[C@@H](NC(=O)OC)C(C)C)n5)cc4)cnc3c2)[nH]1 [Example 67, trifluoroacetic acid salt]
Found: 27.5

Moving on to the next compound.
Lookup: IC50 lookup needed for COC(=O)N[C@H](C(=O)N1CCC[C@H]1c1nc(-c2ccc(-c3cnc4cc(-c5cnc([C@@H]6CCCN6C(=O)CNC(=O)c6ccc7[nH]cnc7c6)[nH]5)ccc4n3)cc2)c[nH]1)C(C)C [Example 43, trifluoroacetic acid salt] , thanks.
Found: 787
